- assayText: Pharmacokinetics in Beagle dogs
- Format: in vivo
- measurementParameters: male, Beagle, plasma; dog; IV 1 mg/kg; read-out: MRT0-∞
measurementLabel: MRT inf (min)

>>> print(df.to_string())
                                    smiles  measvalue
0  Cc1ccc2cccc(NC(=O)c3cccc(OC(C)C)c3)c2n1       12.6

====

- assayText: Pharmacokinetics in Beagle dogs
- Format: in vivo
- measurementParameters: male, Beagle, plasma; dog; PO 10 mg/kg
measurementLabel: Cmax (nM)

In [3]: df
Out[3]:
                                   compound  measurementlabel  measvalue
0  Cc1ccc2cccc(NC(=O)c3cccc(OC(C)C)c3)c2n1 [Compound A13]              Cmax         80
